System: PANC-1 complex spheroid growth, percent test/control
method.summary: Anticancer human tumor PANC-1 cell line growth inhibition [Asc];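 note: spheroids exposed to agents for 7 days; percent viability relative to DMSO vehicle wells taken as 100%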
measurement.setup: second compound 10 µM; first compound 0.0316 µM; active compounds read low

compound: O=C(c1cc(Cc2n[nH]c(=O)c3ccccc23)ccc1F)N1CCN(C(=O)C2CC2)CC1 + Cc1c(S(C)(=O)=O)c(-c2cc(F)cc(N3CCN(c4ccc(NS(=O)(=O)c5ccc(NC(CCN6CCC(C(=O)OCCCP(=O)(O)O)CC6)CSc6ccccc6)c(S(=O)(=O)C(F)(F)F)c5)cc4)CC3)c2)c(-c2ccc(Cl)cc2)n1C(C)C
study.target: PANC-1 complex spheroid growth, percent test/control
units.text: %
viability, T/C: 166
//
compound: O=C(c1ccc(F)c(F)c1Nc1ccc(I)cc1F)N1CC(O)([C@@H]2CCCCN2)C1 + Cc1c(S(C)(=O)=O)c(-c2cc(F)cc(N3CCN(c4ccc(NS(=O)(=O)c5ccc(NC(CCN6CCC(C(=O)OCCCP(=O)(O)O)CC6)CSc6ccccc6)c(S(=O)(=O)C(F)(F)F)c5)cc4)CC3)c2)c(-c2ccc(Cl)cc2)n1C(C)C
study.target: PANC-1 complex spheroid growth, percent test/control
units.text: %
viability, T/C: 157
//
compound: C=CC(=O)N1CCN(c2nc(=O)n(-c3c(C)ccnc3C(C)C)c3nc(-c4c(O)cccc4F)c(F)cc23)C(C)C1 (stereo not given) + Cc1c(S(C)(=O)=O)c(-c2cc(F)cc(N3CCN(c4ccc(NS(=O)(=O)c5ccc(NC(CCN6CCC(C(=O)OCCCP(=O)(O)O)CC6)CSc6ccccc6)c(S(=O)(=O)C(F)(F)F)c5)cc4)CC3)c2)c(-c2ccc(Cl)cc2)n1C(C)C
study.target: PANC-1 complex spheroid growth, percent test/control
units.text: %
viability, T/C: 166
//
compound: CNC(C)C(=O)NC1CN(S(=O)(=O)c2cccc(S(=O)(=O)N3CCC4CCC(C(=O)NC(c5ccccc5)c5ccccc5)N4C(=O)C(NC(=O)C(C)NC)C3)c2)CCC2CCC(C(=O)NC(c3ccccc3)c3ccccc3)N2C1=O (stereo not given) + Cc1c(S(C)(=O)=O)c(-c2cc(F)cc(N3CCN(c4ccc(NS(=O)(=O)c5ccc(NC(CCN6CCC(C(=O)OCCCP(=O)(O)O)CC6)CSc6ccccc6)c(S(=O)(=O)C(F)(F)F)c5)cc4)CC3)c2)c(-c2ccc(Cl)cc2)n1C(C)C
study.target: PANC-1 complex spheroid growth, percent test/control
units.text: %
viability, T/C: 173
//
compound: CCN1CCN(Cc2ccc(Nc3ncc(F)c(-c4cc(F)c5nc(C)n(C(C)C)c5c4)n3)nc2)CC1 + Cc1c(S(C)(=O)=O)c(-c2cc(F)cc(N3CCN(c4ccc(NS(=O)(=O)c5ccc(NC(CCN6CCC(C(=O)OCCCP(=O)(O)O)CC6)CSc6ccccc6)c(S(=O)(=O)C(F)(F)F)c5)cc4)CC3)c2)c(-c2ccc(Cl)cc2)n1C(C)C
study.target: PANC-1 complex spheroid growth, percent test/control
units.text: %
viability, T/C: 174
//
compound: Cn1ncnc1[C@H]1c2n[nH]c(=O)c3cc(F)cc(c23)N[C@@H]1c1ccc(F)cc1 + Cc1c(S(C)(=O)=O)c(-c2cc(F)cc(N3CCN(c4ccc(NS(=O)(=O)c5ccc(NC(CCN6CCC(C(=O)OCCCP(=O)(O)O)CC6)CSc6ccccc6)c(S(=O)(=O)C(F)(F)F)c5)cc4)CC3)c2)c(-c2ccc(Cl)cc2)n1C(C)C
study.target: PANC-1 complex spheroid growth, percent test/control
units.text: %
viability, T/C: 169
//
compound: C=C(F)C(=O)N1CCN(c2nc(OCC3CCCN3C)nc3c2CCN(c2cccc4cccc(Cl)c24)C3)CC1CC#N (stereo not given) + Cc1c(S(C)(=O)=O)c(-c2cc(F)cc(N3CCN(c4ccc(NS(=O)(=O)c5ccc(NC(CCN6CCC(C(=O)OCCCP(=O)(O)O)CC6)CSc6ccccc6)c(S(=O)(=O)C(F)(F)F)c5)cc4)CC3)c2)c(-c2ccc(Cl)cc2)n1C(C)C
study.target: PANC-1 complex spheroid growth, percent test/control
units.text: %
viability, T/C: 181
//
compound: COc1c(OCCCN2CCOCC2)ccc2c3n(c(=NC(=O)c4cnc(N)nc4)nc12)CCN3 + Cc1c(S(C)(=O)=O)c(-c2cc(F)cc(N3CCN(c4ccc(NS(=O)(=O)c5ccc(NC(CCN6CCC(C(=O)OCCCP(=O)(O)O)CC6)CSc6ccccc6)c(S(=O)(=O)C(F)(F)F)c5)cc4)CC3)c2)c(-c2ccc(Cl)cc2)n1C(C)C
study.target: PANC-1 complex spheroid growth, percent test/control
units.text: %
viability, T/C: 131
//
compound: NC1CCC(NC2CC2c2ccccc2)CC1 (stereo not given) + Cc1c(S(C)(=O)=O)c(-c2cc(F)cc(N3CCN(c4ccc(NS(=O)(=O)c5ccc(NC(CCN6CCC(C(=O)OCCCP(=O)(O)O)CC6)CSc6ccccc6)c(S(=O)(=O)C(F)(F)F)c5)cc4)CC3)c2)c(-c2ccc(Cl)cc2)n1C(C)C
study.target: PANC-1 complex spheroid growth, percent test/control
units.text: %
viability, T/C: 174
//
compound: C#Cc1c(F)ccc2cc(O)cc(-c3ncc4c(N5CC6CCC(C5)N6)nc(OCC56CCCN5CC(F)C6)nc4c3F)c12 (stereo not given) + Cc1c(S(C)(=O)=O)c(-c2cc(F)cc(N3CCN(c4ccc(NS(=O)(=O)c5ccc(NC(CCN6CCC(C(=O)OCCCP(=O)(O)O)CC6)CSc6ccccc6)c(S(=O)(=O)C(F)(F)F)c5)cc4)CC3)c2)c(-c2ccc(Cl)cc2)n1C(C)C
study.target: PANC-1 complex spheroid growth, percent test/control
units.text: %
viability, T/C: 114
